system: HS 578T breast; assay: NCI tumour cell line growth inhibition, 48 h; in the data active = GI50 below about 0.43 µM; inactive = the rest
// classify into active, inactive

Any idea what this test logged for CN(C)c1ccc(C(=C2C=CC(=[N+](C)C)C=C2)c2ccc(N(C)C)cc2)cc1 ?
active

Any idea what this test logged for CCNCCNc1cc(C2CCCCC2)c(C#N)c2nc3ccccc3n12 ?
inactive

Any idea what this test logged for COc1cc(C2CC(c3ccc(N(C)C)cc3)=NN2C(C)=O)cc(OC)c1OC (centres undefined) ?
inactive

Any idea what this test logged for Cc1ccc2c(c1)C(=O)c1c-2n(CCCBr)c(=O)c2cc([N+](=O)[O-])ccc12 ?
inactive

Any idea what this test logged for O=C(OCCBr)c1ccc(Cl)c([N+](=O)[O-])c1 ?
inactive

Any idea what this test logged for CC1(C)CC[C@]2(C(=O)N3CCOCC3)CC[C@]3(C)C(=CC[C@@H]4[C@@]5(C)C/C(=C/c6ccncc6)C(=O)C(C)(C)[C@@H]5CC[C@]43C)[C@@H]2C1 ?
inactive

Any idea what this test logged for CC(C)N1C(NNC(=O)c2cnccn2)=NS(=O)(=O)c2ccccc21 ?
inactive

Any idea what this test logged for O=C(CN(/C=C/C(=O)C(F)(F)F)c1ccccc1)c1ccc(Cl)c(Cl)c1 ?
inactive

Any idea what this test logged for CCCCCCCOc1c(OC)cc(C2CC(=O)Nc3c2c(C)nn3-c2nc3ccccc3[nH]2)cc1OC (centres undefined) ?
inactive

Any idea what this test logged for C[C@]12CCc3sc(Nc4ccc(O)cc4)nc3C1=CC[C@@H]1[C@@H]2CC[C@]2(C)C(=O)CC[C@@H]12 ?
inactive

Any idea what this test logged for Cc1[nH]c2ccccc2c1CCNCc1ccc(/C=C/C(=O)NO)cc1 ?
active

Any idea what this test logged for Nc1n[nH]c2cccc(C#Cc3cccc(C(=O)Nc4cc(CN5CCOCC5)cc(C(F)(F)F)c4)c3)c12 ?
inactive

Any idea what this test logged for CSc1ccccc1C#Cc1ccccc1C#CCCCCO ?
inactive

Any idea what this test logged for CC(C)C[C@H](NC(=O)[C@@H](O)[C@H](N)Cc1ccc([N+](=O)[O-])cc1)C(=O)O ?
inactive

* * *

Would you kindly list GI50 for each of these molecules?
system: SNB-19 CNS; test: NCI tumour cell line growth inhibition, 48 h

Read the entry CCCCNC(=O)NS(=O)(=O)c1ccc(N2N=C(c3cc(C)ccc3C)CC2c2cc(OC)c(OC)c(OC)c2)cc1 (centres undefined) and write its reported GI50.
2.75 µM

Read the entry COc1ccc(-c2nn(-c3cccc(Cl)c3)cc2-c2cc(-c3ccccc3)nc(N)n2)cc1 and write its reported GI50.
12.7 µM

Read the entry FC(F)(F)c1ccc(-c2cnc(Cl)nc2NCc2cc(C(F)(F)F)cc(C(F)(F)F)c2)cc1 and write its reported GI50.
2.44 µM

Read the entry N.N.NCCCCCCN.O=C([O-])CC(=O)[O-].O=C([O-])CC(=O)[O-].[Pt+4].[Pt+4] and write its reported GI50.
> 72.1 µM

* * *

tested on: SNB-75 CNS; assay: NCI tumour cell line growth inhibition, 48 h
Readout: TGI

Read the entry CC(C)/C(Cl)=N\OC(=O)Nc1ccc(F)cc1F and write its reported TGI.
33.6 µM

Read the entry O=c1[nH]c(-c2ccc(-c3nc4cc([N+](=O)[O-])ccc4c(=O)[nH]3)cc2)nc2cc([N+](=O)[O-])ccc12 and write its reported TGI.
> 100 µM

Read the entry c1ccc(CSc2nnc3c4ccccc4c4ccccc4c3n2)cc1 and write its reported TGI.
21.6 µM

Read the entry O=C1C(=Nc2ccccc2)Oc2cc(O)ccc21 and write its reported TGI.
> 100 µM

Read the entry O=C1NC(=O)C(COCc2ccccc2)C2=C1SCCC2 (stereo unspecified) and write its reported TGI.
> 100 µM

Read the entry CC(C)CC(NC(=O)C(CCI)Cc1ccccc1)C(=O)Nc1ccccc1 (stereo unspecified) and write its reported TGI.
> 100 µM

Read the entry CCN(CC)C(=S)N=Nc1c(O)[nH]c2ccccc12 and write its reported TGI.
11.2 µM

Read the entry CC(C)c1ccc(Nc2nccc(-c3cnn4ncccc34)n2)cc1 and write its reported TGI.
1.17 µM

Read the entry NC(=O)NC(=O)c1cccc(NC(=O)CF)c1 and write its reported TGI.
> 100 µM

Read the entry CC(=O)N(CN1C(=O)CCC1C(=O)O)c1cccc(O)c1 (stereo unspecified) and write its reported TGI.
> 100 µM

Read the entry CC#CC1C(OC(=O)c2ccccc2)CCCC1(CI)N=[N+]=[N-] (stereo unspecified) and write its reported TGI.
> 100 µM
